measurement target: FGFR3-BAIAP2L1 Ba/F3 cells (Homo sapiens, UniProt P22607)
Sequence (P22607 23-806 limits assumed, change not shown): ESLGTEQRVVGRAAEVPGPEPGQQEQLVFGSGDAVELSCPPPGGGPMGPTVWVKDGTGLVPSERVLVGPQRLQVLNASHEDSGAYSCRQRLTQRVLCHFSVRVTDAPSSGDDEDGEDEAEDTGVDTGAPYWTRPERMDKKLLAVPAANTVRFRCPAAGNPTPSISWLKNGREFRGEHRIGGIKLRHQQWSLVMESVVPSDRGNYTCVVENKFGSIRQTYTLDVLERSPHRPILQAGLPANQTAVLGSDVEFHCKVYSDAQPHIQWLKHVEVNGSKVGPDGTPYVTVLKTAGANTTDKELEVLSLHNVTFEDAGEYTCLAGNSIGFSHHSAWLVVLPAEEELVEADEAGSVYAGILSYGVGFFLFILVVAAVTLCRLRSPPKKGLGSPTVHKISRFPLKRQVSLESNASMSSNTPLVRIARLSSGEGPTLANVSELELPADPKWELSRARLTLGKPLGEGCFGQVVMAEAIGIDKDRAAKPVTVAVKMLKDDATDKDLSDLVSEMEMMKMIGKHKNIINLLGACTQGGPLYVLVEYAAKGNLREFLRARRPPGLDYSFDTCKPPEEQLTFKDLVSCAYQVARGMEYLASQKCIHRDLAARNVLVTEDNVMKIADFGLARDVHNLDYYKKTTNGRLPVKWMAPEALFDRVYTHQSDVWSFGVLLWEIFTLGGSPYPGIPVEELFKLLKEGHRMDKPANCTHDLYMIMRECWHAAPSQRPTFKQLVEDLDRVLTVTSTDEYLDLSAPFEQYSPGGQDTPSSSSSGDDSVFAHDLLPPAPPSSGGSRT
assay method text: Ba/F3 cell viability assay (CellTiter-Glo 2.0), FGFR3-BAIAP2L1 Ba/F3
Format: cell-based
experimental context: FGFR3 > FGFR1 selectivity ratio in Ba/F3 FGFR fusion cell based assays
measured property: Ba/F3 FGFR1/FGFR3 Selectivity
One number for each entry.

// solved cases for Ba/F3 FGFR1/FGFR3 Selectivity follow
1. CCC(=O)N1CCN(c2ccc(-c3n[nH]c4ccc(O[C@H](C)c5c(Cl)cncc5Cl)cc34)cn2)CC1 19
2. C[C@@H](Oc1ccc2[nH]nc(-c3ccc(N4CCN(C(=O)N(C)C)C5(CC5)C4)nc3)c2c1)c1c(Cl)cncc1Cl 16
3. C[C@@H](Oc1ccc2[nH]nc(-c3ccc(Cl)nc3)c2c1)c1c(Cl)cncc1Cl 21
4. C[C@@H](Oc1ccc2[nH]nc(-c3ccc(N4CC5(CN(C(=O)N(C)C)C5)C4)nc3)c2c1)c1c(Cl)cncc1Cl 21
5. C[C@@H](Oc1ccc2[nH]nc(-c3ccc(N4CC5(CNC5)OC4=O)nc3)c2c1)c1c(Cl)cncc1Cl 11

Please supply Ba/F3 FGFR1/FGFR3 Selectivity for each of the following items, keeping them in order.
1. CCOC(=O)N1CC2(C1)CN(c1ccc(-c3n[nH]c4ccc(O[C@H](C)c5c(Cl)cncc5Cl)cc34)cn1)C2
2. C[C@@H](Oc1ccc2[nH]nc(-c3ccc(N4CCN(S(C)(=O)=O)C5(CC5)C4)nc3)c2c1)c1c(Cl)cncc1Cl
3. C[C@@H](Oc1ccc2[nH]nc(-c3cnn(C4CCN(C(=O)N(C)C)CC4)c3)c2c1)c1c(Cl)cncc1Cl
4. C[C@@H](Oc1ccc2[nH]nc(-c3cnc(N4CC5(CCN(S(C)(=O)=O)CC5)C4)nc3)c2c1)c1c(Cl)cncc1Cl
5. C[C@@H](Oc1ccc2[nH]nc(-c3cnc(N4CCC5(CCC(=O)N5)CC4)c(F)c3)c2c1)c1c(Cl)cncc1Cl
6. C[C@@H](Oc1ccc2[nH]nc(-c3ccc(N4CC5(CCN5S(C)(=O)=O)C4)nc3)c2c1)c1c(Cl)cncc1Cl
7. C[C@@H](Oc1ccc2[nH]nc(-c3ccc(N4CCC5(CCC(=O)N5C)CC4)nc3)c2c1)c1c(Cl)cncc1Cl
8. C[C@@H](Oc1ccc2[nH]nc(-c3ccc(C4CCN(C(=O)N(C)C)CC4)nc3)c2c1)c1c(Cl)cncc1Cl

14
11
12
11
17
22
30
15

Please fill in: Ba/F3 FGFR1/FGFR3 Selectivity reported for C[C@@H](Oc1ccc2[nH]nc(-c3ccc(C4CCN(C(N)=O)CC4)nc3)c2c1)c1c(Cl)cncc1Cl = 15
